Values from PubChem BioAssay (EPA / NIEHS)

# Read-out: catalase (CAT), CAT (gene 847)
# run description: LTEA_HepaRG_CAT: Life Technologies and Expression Analysis (LTEA) Assay for catalase (CAT) using HepaRG (AID 2283452);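 on AC50: TaqMan qRT-PCR signal normalized to ACTB GAPDH and POLR2A housekeeping genes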
# measurement parameters: mRNA level, 48 h; actives raise or lower the signal
Activity calls are given as the source filed them. How the source made its calls: active means hit-call score of the fitted dose curve at least 0.9, where 1 is the maximum; inactive means score below 0.9.
measure: AC50

These solved cases illustrate the format of a correct answer.
CCC(C)(NC(=O)c1cc(Cl)c(C)c(Cl)c1)C(=O)CCl (stereo not given) = 71 µM (active)
CC[C@H](C)[C@H]1O[C@]2(C=C[C@@H]1C)C[C@@H]1C[C@@H](C/C=C(\C)[C@@H](O[C@H]3C[C@H](OC)[C@@H](O[C@H]4C[C@H](OC)[C@@H](O)[C@H](C)O4)[C@H](C)O3)[C@@H](C)/C=C/C=C3\CO[C@@H]4[C@H](O)C(C)=C[C@@H](C(=O)O1)[C@]34O)O2 (tested in a mixture with another compound) = 10.5 µM (active)
O=C(O)COc1ccc(Cl)cc1Cl = inactive
CCc1ccc(C(=O)NN(C(=O)c2cc(C)cc(C)c2)C(C)(C)C)cc1 = inactive

List reported AC50 for each of these molecules:
1. CC(C)(C)C(O)C(Oc1ccc(Cl)cc1)n1cncn1 (stereo not given)
2. CC1(C)C(C=C(Cl)Cl)C1C(=O)OC(C#N)c1ccc(F)c(Oc2ccccc2)c1 (stereo not given)
3. O=C1c2ccccc2C(=O)N1SC(Cl)(Cl)Cl
4. CCOC1Oc2ccc(OS(C)(=O)=O)cc2C1(C)C (stereo not given)
5. Clc1ccccc1-c1nnc(-c2ccccc2Cl)nn1
6. CCOCN(C(=O)CCl)c1c(C)cccc1CC
7. CCN(CC)C(=O)SCc1ccc(Cl)cc1
8. O=C(NC(=O)c1c(F)cccc1F)Nc1ccc(OC(F)(F)C(F)OC(F)(F)F)c(Cl)c1 (stereo not given)

1. inactive
2. inactive
3. inactive
4. 74.1 µM (active)
5. inactive
6. 80 µM (active)
7. inactive
8. inactive

List reported AC50 for each of these molecules:
1. CCC(C)Nc1c([N+](=O)[O-])cc(C(C)(C)C)cc1[N+](=O)[O-] (stereo not given)
2. CNC(=O)Oc1ccccc1OC(C)C
3. CC(C)(C)C(O)/C(=C\c1ccc(Cl)cc1Cl)n1cncn1 (stereo not given)
4. COP(=S)(OC)Oc1ccc([N+](=O)[O-])cc1
5. COP(=O)(OC)OC=C(Cl)Cl

1: inactive; 2: inactive; 3: 27.3 µM (active); 4: inactive; 5: inactive

* * *

# Read-out: Pselectin, SELP (gene 6403)
# run description: BSK_4H_Pselectin: BioMAP Diversity Plus: 4H Assay for Pselectin Biomarker Activity (AID 2283026)
# measurement parameters: primary human endothelial cells (HUVEC); actives raise or lower the signal
Active and inactive are the calls of the source. Rule for the calls: active = hit-call score of the fitted dose curve at least 0.9, where 1 is the maximum; inactive = score below 0.9.
Respond using exactly one of the listed classes: Y for active, N for inactive

Some solved entries appear below for comparison.
CCN(CC)C(=O)SCc1ccc(Cl)cc1 = N
Oc1cc(Cl)ccc1Oc1ccc(Cl)cc1Cl = Y

Test call, this compound: COC(=O)c1ccccc1CS(=O)(=O)NC(=O)Nc1nc(OC)cc(OC)n1
N

Follow-up entry: CCCN(CCOc1c(Cl)cc(Cl)cc1Cl)C(=O)n1ccnc1
Y

* * *

# Read-out: Matrix Metallopeptidase 1 (MMP1), MMP1 (gene 4312)
# run description: BSK_hDFCGF_MMP1: BioMAP Diversity Plus: hDFCGF Assay for Matrix Metallopeptidase 1 (MMP1) Biomarker Activity (AID 2283064)
# measurement parameters: primary human foreskin fibroblasts; actives raise or lower the signal
Calls of active or inactive are those of the source. How the source made its calls: active means hit-call score of the fitted dose curve at least 0.9, where 1 is the maximum; inactive means score below 0.9.
Respond using exactly one of the listed classes: active, inactive

N#CN = inactive

Test call, this compound: COP(=S)(OC)Oc1ccc(SC)c(C)c1
active

Follow-up entry: CCN(CC)C(=O)SCc1ccc(Cl)cc1
inactive

Follow-up entry: COP(=O)(OC)OC=C(Cl)Cl
inactive

Follow-up entry: O=C(O)CCCOc1ccc(Cl)cc1Cl
inactive

Follow-up entry: O=C(O)COc1ccc(Cl)cc1Cl
inactive

* * *

# Read-out: Monocyte Chemoattractant Protein-1 (MCP1), CCL2 (gene 6347)
# run description: BSK_SAg_MCP1: BioMAP Diversity Plus: SAg Assay for Monocyte Chemoattractant Protein-1 (MCP1) Biomarker Activity (AID 2283090)
# measurement parameters: primary human HUVEC with PBMC; actives raise or lower the signal
Activity calls are given as the source filed them. How the source made its calls: active means hit-call score of the fitted dose curve at least 0.9, where 1 is the maximum; inactive means score below 0.9.
Respond using exactly one of the listed classes: active, inactive

Some solved entries appear below for comparison.
CCN(CC)C(=O)SCc1ccc(Cl)cc1 = inactive
CC1(C)C(C=C(Cl)Cl)C1C(=O)OC(C#N)c1ccc(F)c(Oc2ccccc2)c1 (stereo not drawn) = active
CCOCN(C(=O)CCl)c1c(C)cccc1CC = active

Test call, this compound: CNC(=O)Oc1ccccc1OC(C)C
inactive

* * *

# Read-out: Cytochrome P450 2B6 (Homo sapiens) (UniProt P20813)
# run description: CLD_CYP2B6_6hr: CellzDirect (CLD) Gene Expression Assay for xenobiotic metabolism (CYP2B6) at 6 hours (AID 2283677);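 further: actives raise CYP2B6 transcript above DMSO baseline so AC50 marks an inducer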
Records with an inconclusive call do not appear. The source made the active and inactive calls. The calls were made as follows: active = hit-call score of the fitted dose curve at least 0.9, where 1 is the maximum; inconclusive = response in the unintended direction; inactive = score below 0.9.
Respond using exactly one of the listed classes: YES (active), NO (inactive)

CCC(C)Nc1c([N+](=O)[O-])cc(C(C)(C)C)cc1[N+](=O)[O-] (stereo not given) = YES
CC(C)(C)C(O)/C(=C\c1ccc(Cl)cc1Cl)n1cncn1 (stereo not given) = YES
O=C(O)CCCOc1ccc(Cl)cc1Cl = NO

Test call, this molecule: O=[N+]([O-])/N=C1\NCCN1Cc1ccc(Cl)nc1
NO

Follow-up entry: Cc1cc(C)nc(NC(=O)NS(=O)(=O)c2ccccc2C(=O)OC2COC2)n1
NO

Follow-up entry: CCS(=O)(=O)c1cccnc1S(=O)(=O)NC(=O)Nc1nc(OC)cc(OC)n1
YES

Follow-up entry: COc1nn(CSP(=S)(OC)OC)c(=O)s1
YES

Follow-up entry: ClC1C(Cl)C(Cl)C(Cl)C(Cl)C1Cl (stereo not given)
YES

Follow-up entry: CCOCN(C(=O)CCl)c1c(C)cccc1CC
YES

Follow-up entry: CNC(=O)Oc1cccc(N=CN(C)C)c1
NO

* * *

# Read-out: Glutathione S-transferase M3 (GSTM3), GSTM3 (gene 2947)
# run description: LTEA_HepaRG_GSTM3: Life Technologies and Expression Analysis (LTEA) Assay for Glutathione S-transferase M3 (GSTM3) using HepaRG (AID 2283501)
# measurement parameters: mRNA level, 48 h; actives raise or lower the signal
Active and inactive are the calls of the source. Rule for the calls: active = hit-call score of the fitted dose curve at least 0.9, where 1 is the maximum; inactive = score below 0.9.
measure: AC50

These solved cases illustrate the format of a correct answer.
Clc1ccccc1-c1nnc(-c2ccccc2Cl)nn1 = inactive
COP(=S)(OC)Oc1ccc([N+](=O)[O-])cc1 = inactive
CNC(=O)/C=C(\C)OP(=O)(OC)OC = inactive
CNC(=O)Oc1cccc(N=CN(C)C)c1 = inactive
CC(C)(C)C(O)/C(=C\c1ccc(Cl)cc1Cl)n1cncn1 (centres undefined) = inactive
O=S(=O)(O)C(F)(F)C(F)(F)C(F)(F)C(F)(F)C(F)(F)C(F)(F)C(F)(F)C(F)(F)F = inactive

List reported AC50 for each of these compounds:
1. CCC(C)(NC(=O)c1cc(Cl)c(C)c(Cl)c1)C(=O)CCl (centres undefined)
2. Cc1[nH]c(=O)n(C(C)(C)C)c(=O)c1Cl
3. CCC(C)(C)C(=O)OC1=C(c2ccc(Cl)cc2Cl)C(=O)OC12CCCCC2
4. COP(=S)(OC)Oc1ccc(SC)c(C)c1

1: 50.2 µM (active); 2: inactive; 3: inactive; 4: inactive

List reported AC50 for each of these compounds:
1. C[C@H]1[C@H](c2ccc(Cl)cc2)SC(=O)N1C(=O)NC1CCCCC1
2. O=C(O)COc1ccc(Cl)cc1Cl
3. OCCOc1ccccc1
4. N#CN
5. COP(=O)(OC)OC=C(Cl)Cl
6. O=C(O)C(F)(F)C(F)(F)C(F)(F)C(F)(F)C(F)(F)C(F)(F)C(F)(F)F
7. O=S1OCC2C(CO1)C1(Cl)C(Cl)=C(Cl)C2(Cl)C1(Cl)Cl (centres undefined)

1. inactive
2. inactive
3. inactive
4. inactive
5. inactive
6. inactive
7. inactive

List reported AC50 for each of these compounds:
1. COc1nn(CSP(=S)(OC)OC)c(=O)s1
2. CNC(=O)CSP(=S)(OC)OC

1. inactive
2. inactive

* * *

# run description: APR_HepG2_NuclearSize_1hr: Apredica 1-hour HepG2 Assay for Nuclear Size (AID 2282670)
# measurement parameters: high-content imaging, actives raise or lower the signal
The source made the active and inactive calls. How the source made its calls: active means hit-call score of the fitted dose curve at least 0.9, where 1 is the maximum; inactive means score below 0.9.
Respond using exactly one of the listed classes: yes (active), no (inactive)

Some solved entries appear below for comparison.
CCCN(CCOc1c(Cl)cc(Cl)cc1Cl)C(=O)n1ccnc1 = no
O=[N+]([O-])c1c(Cl)c(Cl)c(Cl)c(Cl)c1Cl = no
COc1nn(CSP(=S)(OC)OC)c(=O)s1 = no

Test call, this molecule: COP(=O)(OC)OC=C(Cl)Cl
no

Follow-up entry: COP(=S)(OC)Oc1ccc(SC)c(C)c1
no

Follow-up entry: CCCN(CCC)c1c([N+](=O)[O-])cc(C(F)(F)F)cc1[N+](=O)[O-]
no

Follow-up entry: Oc1cc(Cl)ccc1Oc1ccc(Cl)cc1Cl
yes

Follow-up entry: [2H]C1([2H])[n+]2ccccc2-c2cccc[n+]2C1([2H])[2H]
no

Follow-up entry: CCS(=O)(=O)c1cccnc1S(=O)(=O)NC(=O)Nc1nc(OC)cc(OC)n1
no

Follow-up entry: CNC(=O)Oc1cccc(N=CN(C)C)c1
no

Follow-up entry: CC(C)N(C(=O)COc1nnc(C(F)(F)F)s1)c1ccc(F)cc1
no

Follow-up entry: O=C1c2ccccc2C(=O)N1SC(Cl)(Cl)Cl
no

Follow-up entry: Clc1ccccc1-c1nnc(-c2ccccc2Cl)nn1
no
